# Tested on: NCI-H2347
# protocol.description: relative viability (nuclei count vs DMSO), 5 days (fraction); higher = more cells survive
# experimental.context: first compound 0.4 µM
Documented relative viability across a set of compounds
Just the number, please.

Examples with answers:
compound	system.name	relative viability
O=C(O)c1ccc(-c2c[nH]c3ncc(-c4ccccc4)cc23)cc1C1CCCC1 + O=C(CCCCCCC(=O)Nc1ccccc1)NO [Vorinostat] (partner 1 µM)	NCI-H2347	0.597
O=C(O)c1ccc(-c2c[nH]c3ncc(-c4ccccc4)cc23)cc1C1CCCC1 + Cc1nc(NC(=O)N2CCC[C@H]2C(N)=O)sc1-c1ccnc(C(C)(C)C(F)(F)F)c1 [Alpelisib] (partner 2 µM)	NCI-H2347	1.11
O=C(O)c1ccc(-c2c[nH]c3ncc(-c4ccccc4)cc23)cc1C1CCCC1 + CCNC(=O)c1noc(-c2cc(C(C)C)c(O)cc2O)c1-c1ccc(CN2CCOCC2)cc1 [Luminespib] (partner 0.01 µM)	NCI-H2347	0.275

*Q* Output relative viability of O=C(O)c1ccc(-c2c[nH]c3ncc(-c4ccccc4)cc23)cc1C1CCCC1 + COc1cc2c(Oc3ccc(NC(=O)C4(C(=O)Nc5ccc(F)cc5)CC4)cc3F)ccnc2cc1OCCCN1CCOCC1 [Foretinib] (partner 0.25 µM)
*A* 1.01
